What z-score was measured for each of the following?
# Measurement notes: S. cerevisiae growth modulation with rapamycin, primary screen, strain BY4716, OD600, 96 h (AID 1091); further: test concentration not given here
# Condition description: higher = more signal, called active from +8 up or from −8 down
Activity calls are given as the source filed them.

[ask] Query z-score for `Cc1ccc(S[C@]2(C(=O)NCc3ccccc3)CC(=O)N(Cc3ccccc3C(F)(F)F)[C@@H]2c2ccc(CO)cc2I)cc1`
[reply] 0.899 (inactive)

[ask] Provide only the value of recorded z-score for COc1ccc(NN2C(C(O)c3ccccc3)C=CC3C(=O)N(C4CCCCC4)C(=O)C32)cc1 (centres undefined)
[reply] 1.34 (inactive)

[ask] Identify measured z-score associated with `Cc1cccc([C@H]2C[C@H]3C(Br)=C[C@@]2(CO)C(=O)[C@]32CO2)c1`
[reply] -0.75 (inactive)

[ask] Assign z-score to the following record: `CC(C)(C)OC(=O)CC[C@]1(C(N)=O)N=C(c2ccc(OCCCO)cc2)O[C@H]1c1ccccc1N=[N+]=[N-]`
[reply] 0.467 (inactive)

[ask] Return reported z-score. Input compound: `CCOC(=O)C[C@H]1[C@H](OC(=O)Cc2ccc3c(c2)OCO3)[C@@H](NC(=O)CC(C)C)c2cc(OCCCO)ccc2N1C(=O)c1ccc2ccccc2n1`
[reply] -0.0443 (inactive)

[ask] Read off the recorded z-score for `COCCCNC(=O)[C@@]1(Cc2ccccc2I)c2ccccc2C(=O)N(Cc2ccccc2C(F)(F)F)[C@H]1c1ccc(CO)cc1`
[reply] 0.437 (inactive)

[ask] Output measured z-score for this item: `C=CCNC(=O)[C@H]1[C@@H]2C(=O)O[C@@H](c3ccccc3)[C@@H](c3ccccc3)N2[C@@H](c2ccc(O)cc2)[C@]12C(=O)Nc1ccccc12`
[reply] 1.37 (inactive)

[ask] Respond only with z-score recorded for N#Cc1ccc(NN2C(C(O)c3ccc(B(O)O)cc3)C=CC3CN(c4ccccc4)C(=O)C32)cc1 (centres undefined)
[reply] 1.88 (inactive)

[ask] For the compound `[N-]=[N+]=Nc1ccccc1C[C@]1(C(N)=O)COC(c2ccc(OCCCO)cc2)=N1` , give its reported z-score.
[reply] 0.0643 (inactive)
